src = PubChem BioAssay AID603

System: DNA polymerase III holoenzyme (E. coli)
assayProcedure: qHTS Assay for Inhibitors of DNA Polymerase III Holoenzyme System; further: on the % scale 0 is the no-effect control and ±100 the full control effect
cond: reconstituted DNA polymerase III holoenzyme replication, biochemical; series mostly up to 57.1 µM
Out of some 71,000 compounds screened, about 180 (0.25%) were called active. What follows is part of a selection rich in actives, with near analogues and random picks from the rest.
assayEndpoint: activity change, negative = inhibition

>>> observedvalue("c1ccc(Nc2n[nH]nc2-c2ccccc2)cc1")
"inactive"
>>> observedvalue("CCCCCCc1ccc(O)cc1O")
"inactive"
>>> observedvalue("COc1ccccc1CNc1ncnc2ccc(-c3c(C)noc3C)cc12")
"inactive"
>>> observedvalue("O=C(Oc1ccc2c(c1)CN(Cc1ccccc1)CO2)c1ccccc1")
"-3% [at 11.4 µM] (inactive)"
>>> observedvalue("CCC(C)(C)n1nnnc1C(c1cccs1)N1CCN(c2nc3ccccc3s2)CC1 (configuration not stated)")
"inactive"

Inquiry: Need activity change, negative = inhibition, item "c1ccc2nc(C3=NCCN3)cnc2c1"
Reply text: inactive

Inquiry: Need activity change, negative = inhibition, item COCCn1nnnc1C(c1ccccc1Cl)N1CCN(c2ccccc2OC)CC1 (configuration not stated)
Reply text: inactive

Inquiry: Need activity change, negative = inhibition, item N#CC1=C(N)Oc2cc(O)ccc2C1C1CCCCC1 (configuration not stated)
Reply text: inactive
